system: SK-MEL-2 melanoma; test: NCI-60 one-dose screen, 48 h (100 = growth as untreated, 0 = no growth, -100 = all killed); details: 10 µM unless noted
Compounds without any hit were thinned out: in the full panel of roughly 83,000, 20% have a hit. Activity calls are given as the source filed them. How the source made its calls: active means growth percent below 10; inactive means the rest.
endpointLabel: growth

1) O=C(Cc1cccc(OC(F)(F)F)c1)Nc1ccc(CCCCc2nnc(NC(=O)Cc3ccccn3)s2)nn1    116% (inactive)
2) COc1ccc2c(c1)/C(=N/c1n[nH]c(=S)s1)C(=O)N2    105% (inactive)
3) Cc1nc2cc(O)c(O)cc2cc1Oc1ccc(NC(=O)Nc2ccc(Cl)c(Cl)c2)cc1    77.7% (inactive)
4) COc1ccc2c(c1)c(/C(O)=C1\COC(=O)C1=O)cn2Cc1ccc(F)cc1    85.5% (inactive)
5) C=C(CNCCc1ccc(O)cc1)[C@@H]1CC[C@]2(CO)CC[C@]3(C)[C@H](CC[C@@H]4[C@@]5(C)CCC(=O)C(C)(C)[C@@H]5CC[C@]43C)[C@@H]12    37.5% (inactive)
6) Oc1c(CN2CCCC2)cc(CSCc2ccccc2)c2cccnc12    11.3% (inactive)
7) Cc1ccc(C=C2C(=O)NC(=O)NC2=O)cc1    104% (inactive)
8) O=c1ccc(=O)n(-c2nc(-c3ccc([N+](=O)[O-])cc3)cs2)[nH]1    108% (inactive)
9) CCN(CC)CCN1C(=O)c2cccc3c(/C=C/CN4C(=O)c5cccc6cccc(c56)C4=O)ccc(c23)C1=O    108% (inactive)
10) C=C1C(=O)O[C@H]2[C@H]1CC/C(COC(=O)c1cc3cc(Cl)ccc3[nH]1)=C\CC[C@@]1(C)O[C@@H]21    -84.2% (active)
11) COc1ccc(/C=C(/c2ccccc2)[N+](=O)[O-])c(OC)c1    -6.4% (active)
12) CCNC(=O)Oc1ccc(/C(=C(/C)Cc2ccc(OC)cc2)c2ccc(OCCN3CCCCC3)cc2)cc1    92.3% (inactive)
13) Cc1cc(Nc2ccc(C(=O)N3CCCC3)cc2)nc(NCCCNc2ccnc3cc(Cl)ccc23)n1    99.5% (inactive)
14) CN1CCN(Cc2ccc(NC(=O)c3cncc(C#Cc4cnc5ccc(Cl)nn45)c3)cc2C(F)(F)F)CC1    -46.1% (active)
15) COc1cc(OC)c(/C=C/C(=O)c2c(O)cc(OC)c(C3CCN(C)CC3)c2OC)c(OC)c1    -57.8% (active)
16) N#C/C(=C\C=C\c1ccc(-c2cc(Cl)ccc2Cl)o1)c1nc2ccccc2s1    104% (inactive)

###

system: RXF 393 renal; experiment: NCI-60 one-dose screen, 48 h; conditions: 10 µM unless noted
This is part of a sample that, as a whole, favours compounds with a hit. Of some 83,000 tested, about 20% had one in any assay. Calls of active or inactive are those of the source. The calls were made as follows: active = growth percent below 10; inactive = the rest.
Classes used: t for active, f for inactive

1) FC(F)(F)Oc1cccc(-c2cnc3ccc(-c4ccncc4)nn23)c1    t
2) C#CCO[C@H]1CC(CC#C)(CC#C)C(=O)[C@@H]2[C@H]1[C@H]1C[C@@H]3[C@@]4(C)CCC[C@@](C)(C(=O)OC)[C@@H]4CC[C@@]23C=C1C(C)C    f
3) O=c1c2c3c(sc2n2c(-c4cc(-c5ccccc5)no4)nnc2n1Cc1ccccc1)CCCC3    f
4) Cc1ccc(C=C2C(=O)NC(=O)NC2=O)cc1    f
5) O=C(Nc1ncc(Cc2cc(C(F)(F)F)ccc2Cl)s1)c1cccs1    f
6) COc1cccc(/C=N/NC(=O)c2ccccc2N2CCCC2)c1O    f
7) COc1cc2c(c(OC)c1OC)C(=O)CC(c1cccc(NC(=O)c3ccc(C#N)cc3)c1)O2 (centres undefined)    f
8) O=C(CN1CCCCCC1)Nc1nc2ccc(NCc3ccc(Cl)cc3)cc2s1    f
9) COc1cc(/C=C2\CN(S(=O)(=O)c3ccccc3)C/C(=C\c3cc(CN4CCCCC4)c(O)c(OC)c3)C2=O)cc(CN2CCCCC2)c1O    t
10) C#Cc1cccc(Nc2nc(C)nc3cc(NC(=O)CCl)ccc23)c1    t
11) COc1cc(/C=N/Nc2ccc(Br)cc2)cc(OC)c1OC    f
12) O=C(Nc1ccc(Cl)cc1)Oc1c(Cl)c(Cl)c(Cl)c(Cl)c1Cl    f
13) CN1CCN(c2ccc3nc4c(nc3c2C(F)(F)F)C(=O)c2ncccc2C4=O)CC1    f
14) O=C(Nc1ccccc1N1CCCC1=O)c1oc2ccc(F)cc2c1-c1cnn(-c2ccccc2)c1    f
15) N#Cc1c(-c2ccccc2)nc(SCC(O)CN2CCOCC2)nc1N1CCOCC1 (centres undefined)    f
16) O=C1NC(=O)/C(=C/c2c(-c3ccccc3)nc3sc(COc4ccccc4)nn23)S1    f
17) COc1ccc2nc(Cl)c(/C=C3\CC(c4ccccc4)=NN(c4ccccc4)C3=O)cc2c1    f
18) O=c1cc(-c2ccccc2)[nH]c2ncc(-c3ccc(F)cc3)n12    f
19) COc1cc(/C=C/C(=O)c2ccc(-n3cc(CN4CCN(c5cc6c(cc5F)c(=O)c(C(=O)O)cn6C5CC5)CC4)nn3)cc2)ccc1O    f
20) NC(=O)c1c(NC(=O)c2cccc(C(F)(F)F)c2)sc2c1CCC(=O)C2    t
21) CC(C)(C)n1cc(-c2ccnc(NCCNS(=O)(=O)c3ccc(O)cc3)c2)c(-c2cccc(O)c2)n1    f
22) CC(C)(C)n1cc(-c2ccnc(NCCCNS(=O)(=O)c3ccc(C(F)(F)F)cc3)c2)c(-c2cccc(F)c2)n1    f
23) Nc1nc(NC(=O)Nc2ccc(C(=O)O)cc2)nn1-c1ccc(S(N)(=O)=O)cc1    f
24) CCOC(=O)c1nn(CC(O)c2ccccc2)c(NC(=O)Nc2cccc(F)c2)c1C (centres undefined)    f
25) C#CCNC(=O)[C@]1(C)CCC[C@@]2(C)[C@H]1CC=C1C=C(C(C)C)CC[C@@H]12    f
26) CC1(C)CC[C@]2(CO)CC[C@]3(C)[C@H](CC[C@@H]4[C@@]5(C)CCCNC(C)(C)[C@@H]5CC[C@]43C)[C@H]2[C@H]1O    f
27) O=C(Cc1ccccc1)Nc1cccc(N=Cc2ccccc2O)c1    f
28) Nn1c(=O)c(=O)[nH]c2c(cnn2-c2ccccc2)c1=O    f
29) c1ccc2c(c1)CCCc1nnc3nc4ccccc4n3c1-2    f
